List of pIC50 values.
# Test system: U138MG
# ASSAY_NOTES: Anti-proliferative assay (cellular IC50), U138MG
# STUDY_CONDITIONS: Homo sapiens, U138-MG, read-out: In Vitro Cellular IC50 U138MG
pIC50: −log10 of the molar value.

Please review the entries below; each comes with its answer.
INSERT INTO results (compound, value) VALUES
  ('CS(=O)(=O)N1CCN(Cc2cc3nc(-c4cccc5[nH]ncc45)nc(N4CCOCC4)c3s2)CC1 [GDC-0941, reference compound]', '5.70 to 6.30'),
  ('CC(C)n1cnc2c(-c3cccc(OCCCC(=O)NO)c3)nc(N3CCOCC3)nc21', '5.70 to 6.30');

From here, focus on the item given below.
Req: Give its pIC50 value. Item: O=C(CCCOc1cccc(-c2nc(N3CCOCC3)nc3c2ncn3C2CCCC2)c1)NO
Resp: 5.70 to 6.30

###

List of IC50 values.
# SYSTEM_UNDER_TEST: HDAC1 (Homo sapiens)
# Sequence (Q13547 whole entry): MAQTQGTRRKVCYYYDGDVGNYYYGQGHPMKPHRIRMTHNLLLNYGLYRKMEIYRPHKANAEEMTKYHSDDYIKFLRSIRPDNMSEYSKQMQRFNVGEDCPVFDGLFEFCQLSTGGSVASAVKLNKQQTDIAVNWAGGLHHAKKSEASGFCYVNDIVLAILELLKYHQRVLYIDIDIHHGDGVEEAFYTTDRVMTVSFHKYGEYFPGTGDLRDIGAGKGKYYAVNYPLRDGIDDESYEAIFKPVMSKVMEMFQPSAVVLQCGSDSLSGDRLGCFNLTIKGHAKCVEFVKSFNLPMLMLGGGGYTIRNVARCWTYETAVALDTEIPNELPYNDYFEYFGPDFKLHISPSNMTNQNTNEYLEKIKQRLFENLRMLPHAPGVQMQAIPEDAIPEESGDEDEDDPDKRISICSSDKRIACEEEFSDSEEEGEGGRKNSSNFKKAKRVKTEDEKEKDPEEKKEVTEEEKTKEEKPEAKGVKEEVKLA
# ASSAY_NOTES: HDAC enzyme assay, recombinant HDAC1

Please review the entries below; each comes with its answer.
INSERT INTO measurements (compound, value) VALUES
  ('CC(C)n1cnc2c(N3CCOCC3)nc(-c3cccc(NC(=O)CCCCCCC(=O)NO)c3)nc21 [compound 85]', '10 to 100 nM'),
  ('CCn1c(CN(C)Cc2ccc(/C=C/C(=O)NO)cc2)nc2c(N3CCOCC3)nc(-c3cccc(C(N)=O)c3)nc21 [compound 91]', '100 to 1000 nM'),
  ('CCn1c(CN(C)Cc2ccc(/C=C/C(=O)NO)cc2)nc2c(N3CCOCC3)nc(-c3ccc(C(N)=O)cc3)nc21 [compound 90]', '100 to 1000 nM'),
  ('CCn1c(CNCCCCCC(=O)NO)nc2c(N3CCOCC3)nc(-c3cnc(N)nc3)nc21 [compound 87]', '100 to 1000 nM'),
  ('CC(C)n1cnc2c(N3CCOCC3)nc(-c3cccc(OCCCC(=O)NO)c3)nc21 [compound 83]', '100 to 1000 nM'),
  ('CC(C)n1c(NCc2ccc(C(=O)NO)cc2)nc2c(-c3cnc(N)nc3)nc(N3CCOCC3)nc21 [compound 80]', '100 to 1000 nM'),
  ('CC(C)n1cnc2c(-c3cnc(N)nc3)nc(NCCCCCC(=O)NO)nc21 [compound 38]', '< 10 nM');

Req: Give its IC50 value. Item: CCN(CC)c1nc(-c2cccc(OCCCC(=O)NO)c2)c2ncn(C(C)C)c2n1 [compound 30]
Resp: 1000 to 10000 nM

###

# System: BxPC-3
# ASSAY_NOTES: Anti-proliferative assay (cellular IC50), BxPC-3
# STUDY_CONDITIONS: Homo sapiens, BXPC-3, read-out: In Vitro Cellular IC50 BxPC-3
List of IC50 values.

INSERT INTO assay_data (molecule, system_under_test, outcome_measure, value) VALUES
  ('CC(C)n1cnc2c(-c3cccc(OCCCC(=O)NO)c3)nc(N3CCOCC3)nc21', 'BxPC-3', 'IC50', '500 to 2000 nM'),
  ('CCn1c(CN(C)Cc2ccc(C(=O)NO)cc2)nc2c(N3CCOCC3)nc(-c3cnc(N)nc3)nc21', 'BxPC-3', 'IC50', '500 to 2000 nM');

Req: Give its IC50 value. Item: CS(=O)(=O)N1CCN(Cc2cc3nc(-c4cccc5[nH]ncc45)nc(N4CCOCC4)c3s2)CC1 [GDC-0941, reference compound]
Resp: 500 to 2000 nM

Data credit: patent US9957270B2
